Target: UniProt P35030
Sequence (P35030 1-304): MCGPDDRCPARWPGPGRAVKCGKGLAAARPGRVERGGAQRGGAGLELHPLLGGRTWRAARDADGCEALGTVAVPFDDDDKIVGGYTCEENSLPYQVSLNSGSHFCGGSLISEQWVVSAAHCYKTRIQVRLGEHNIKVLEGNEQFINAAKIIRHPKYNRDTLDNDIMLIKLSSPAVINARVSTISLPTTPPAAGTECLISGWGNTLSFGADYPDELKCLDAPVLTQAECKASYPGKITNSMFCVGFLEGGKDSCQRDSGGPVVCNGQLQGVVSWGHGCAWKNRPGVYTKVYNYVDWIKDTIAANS
Experiment: Kinetic progress curves (kapp, K1, KI*, mechanism)
Format: biochemical
Design: purchased R&D
Details: apparent second-order rate constant from progress curves; mean ± SD
Protocol: Because the compounds described in this paper were previously described as irreversible inhibitors, the IC50 value is inversely correlated with the second-order rate constant of inactivation. […] The inactivation rate constant was determined from the time course of inhibition. Kinetic assays were performed in the following manner. […] Progress curves were recorded in pseudo-first-order conditions ([I]0>>[E]0) and with less than 10% conversion of the substrate during the entire time course. […]
Parameter: Trypsin-3 kapp

Known Trypsin-3 kapp results, listed for orientation:
CC(=O)Nc1ccc(OP(=O)(Oc2ccc(NC(C)=O)cc2)C(Cc2ccc(NC(=N)N)cc2)NC(=O)OCCCc2cn(CCOCCOCCOCCNC(=O)CCCCC[C@H]3NC(=O)N[C@H]3C)nn2)cc1 (stereo partly drawn) [52b] ... 86 × 10^3 ± 8250 M^−1 s^−1
C[C@@H]1NC(=O)N[C@@H]1CCCCCC(=O)NCCOCCOCCOCCn1cc(CCCOC(=O)NC(Cc2ccc(NC(=N)N)cc2)P(=O)(Oc2ccccc2)Oc2ccccc2)nn1 (stereo partly drawn) [50b] ... 49 × 10^3 ± 2979 M^−1 s^−1

Item under review: C#CCCCOC(=O)NC(Cc1ccc(NC(=N)N)cc1)P(=O)(Oc1ccccc1)Oc1ccccc1 (stereo not drawn) [34b] . Reported Trypsin-3 kapp?
40 × 10^3 ± 2642 M^−1 s^−1

All figures here come from paper PMC9849758.
